- assay overview: NCI Yeast Anticancer Drug Screen. Data for the cln2 rad14 strain (AID 165);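 also: 0% = growth equal to vehicle treated cultures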
- test conditions: S. cerevisiae cln2 rad14 strain, at 50.0 µM, active compounds read high
This is part of a sample that, as a whole, favours compounds with a hit. Of some 79,000 tested, about 15% had one in any assay. Calls of active or inactive are those of the source. Rule as the data show it: active = growth inhibition above about 70%; inactive = the rest.
Listed here: items and their measured growth inhibition.

# compound, value
measured = [
    ("Cc1cccc(C)c1NC(=O)C(Cl)(Cl)Sc1ccc(Cl)cc1Cl", "8.65% (inactive)"),
    ("O=C(OC1OC(COCc2ccccc2)C(OCc2ccccc2)C1OCc1ccccc1)c1ccc([N+](=O)[O-])cc1 (configuration not stated)", "-26.1% (inactive)"),
]

Quick one: growth inhibition for CCN(Cc1ccc(CN(CC)C(=O)c2c(-c3ccccc3)noc2C)cc1)C(=O)c1c(-c2ccccc2)noc1C ?
17.8% (inactive)

Quick one: growth inhibition for Cc1ccc(S(=O)(=O)n2cncc2CO)cc1 ?
7.55% (inactive)

Quick one: growth inhibition for COc1cc(CC(=O)O)c(Br)cc1C ?
0.05% (inactive)

Quick one: growth inhibition for O=c1c([OH2+])c(-c2ccc(O)cc2[O-])oc2cc(O)cc([O-])c12.O=c1c([OH2+])c(-c2ccc(O)cc2[O-])oc2cc(O)cc([O-])c12.[Ti+4] ?
8.2% (inactive)

Source of measurements: PubChem BioAssay (NCI)
